tested_on: ETB receptor (Sus scrofa)
Construct: ETB receptors of porcine cerebellum membrane suspension used in the present experiments; from tissue; host or cells: porcine cerebellum membrane preparation
Sequence (P35463 27-443): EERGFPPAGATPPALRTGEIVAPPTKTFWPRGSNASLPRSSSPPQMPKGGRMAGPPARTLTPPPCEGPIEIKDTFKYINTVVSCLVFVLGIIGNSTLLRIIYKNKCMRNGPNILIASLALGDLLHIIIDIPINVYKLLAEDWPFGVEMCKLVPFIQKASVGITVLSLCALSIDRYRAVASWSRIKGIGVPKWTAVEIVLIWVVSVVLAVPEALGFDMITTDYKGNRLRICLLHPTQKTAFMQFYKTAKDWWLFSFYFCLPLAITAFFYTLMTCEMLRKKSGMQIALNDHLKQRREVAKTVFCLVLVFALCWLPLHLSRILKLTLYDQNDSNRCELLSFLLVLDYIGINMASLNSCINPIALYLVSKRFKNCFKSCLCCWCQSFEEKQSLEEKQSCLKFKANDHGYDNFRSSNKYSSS
protocol_summary: Endothelin binding inhibition test (125I-endothelin-1, porcine cerebellum membrane)
run_conditions: 1.1 μM test compound; porcine cerebellum membrane (ETB receptors)
Procedure: The cerebellum of porcine was homogenized in a buffer solution of 10 mM MOPS, pH 7.4, at 4° C. by a polytron. To the homogenate, sucrose was added to a concentration of 20%, and the mixture was centrifuged at 1,000×g for 15 minutes, and the supernatant was further centrifuged at 10,000×g for 15 minutes. The supernatant thereof was further centrifuged at 90,000×g for 40 minutes. […]
Numbered stars: 1 amine (or outer) side, 2 acyl side, 3 side chain; on linkers, the order of the positions; unused ones are H or OH. Square brackets hold non-standard residues; d marks the D form. Peptide text beside a SMILES is read from it. X1 = N#Cc1[nH]c2ccccc2c1C[C@@H](N[*:1])C(=O)[*:2]; dPen = CC(C)(S)[C@@H](N)C(=O)O
measured_property: inhibition at 1.1 µM (%)

compound: CCCC[C@@H](NC(=O)[C@@H](Cc1c(C#N)[nH]c2ccccc12)NC(=O)[C@@H](NC(=O)N1C(C)CCCC1C)C(C)C)C(=O)O (some centres unmarked)
tested_on: ETB receptor (Sus scrofa)
inhibition at 1.1 µM (%): 96

compound: CSC(C)(C)[C@H]1NC(=O)[C@@H]2CCCN2C(=O)[C@@H](CC(=O)O)NC(=O)[C@@H](Cc2c(C#N)[nH]c3ccccc23)NC(=O)[C@H](CC(C)C)NC1=O [Compound 11] (cyclo(L[X1][dD]P[dPen](Me)))
tested_on: ETB receptor (Sus scrofa)
inhibition at 1.1 µM (%): 97

compound: CCC[C@@H](NC(=O)[C@@H](Cc1c(C#N)[nH]c2ccccc12)NC(=O)[C@@H](NC(=O)N1C(C)CCCC1C)C1CCCC1)C(=O)NC (some centres unmarked)
tested_on: ETB receptor (Sus scrofa)
inhibition at 1.1 µM (%): 100

compound: CCC[C@@H](NC(=O)[C@@H](Cc1c(C#N)[nH]c2ccccc12)NC(=O)[C@@H](NC(=O)N1C(C)CCCC1C)C1CCCC1)C(=O)OC (some centres unmarked)
tested_on: ETB receptor (Sus scrofa)
inhibition at 1.1 µM (%): 96

compound: CCCC[C@@H](NC(=O)[C@@H](Cc1c(C#N)[nH]c2ccccc12)NC(=O)[C@H](CC(C)(C)C)NC(=O)N1C(C)CCCC1C)C(=O)O (some centres unmarked)
tested_on: ETB receptor (Sus scrofa)
inhibition at 1.1 µM (%): 100
